Where these numbers come from: paper PMC9332470

# Test system: mAb 13C8
# protocol: indirect competitive ELISA (icELISA) with mAb 13C8
# Assay type: binding, BALB/c mice
# condition.summary: optimized ELISA, mAb 13C8 0.03 μg/mL, coating antigen 0.1 μg/mL, given as MDA-BSA and MDA-OVA; unit from text
measurement.type: IC50 (ELISA) (µg/mL)
Unit µg/mL implied. Number only.

compound="CCCCN(CCCC)SN(C)C(=O)Oc1cccc2c1OC(C)(C)C2 [carbosulfan]" measurement_type="IC50 (ELISA)" readout_value=0.00024
compound="CNC(=O)Oc1cccc2c1OC(C)(C)C2O (centres unmarked) [3-hydroxy-carbofuran]" measurement_type="IC50 (ELISA)" readout_value=0.00025
compound="CNC(=O)Oc1cccc2c1OC(C)(C)C2 [carbofuran]" measurement_type="IC50 (ELISA)" readout_value=0.00018

Exercise: Give a short answer stating reported IC50 (ELISA) for CCOC(=O)CCN(SN(C)C(=O)Oc1cccc2c1OC(C)(C)C2)C(C)C [benfuracarb] .
Key: 0.00023
